biological target: MRPL37 (UniProt Q9BZE1); test: EC50 of free RNA motif oligo competing protein binding to immobilised probe

[
  {
    "Query sequence": "CUGUCCU",
    "Unit of measure": "nM",
    "EC50": 245
  }
]

====

Target: YTHDC2 (UniProt Q9H6S0)
Sequence: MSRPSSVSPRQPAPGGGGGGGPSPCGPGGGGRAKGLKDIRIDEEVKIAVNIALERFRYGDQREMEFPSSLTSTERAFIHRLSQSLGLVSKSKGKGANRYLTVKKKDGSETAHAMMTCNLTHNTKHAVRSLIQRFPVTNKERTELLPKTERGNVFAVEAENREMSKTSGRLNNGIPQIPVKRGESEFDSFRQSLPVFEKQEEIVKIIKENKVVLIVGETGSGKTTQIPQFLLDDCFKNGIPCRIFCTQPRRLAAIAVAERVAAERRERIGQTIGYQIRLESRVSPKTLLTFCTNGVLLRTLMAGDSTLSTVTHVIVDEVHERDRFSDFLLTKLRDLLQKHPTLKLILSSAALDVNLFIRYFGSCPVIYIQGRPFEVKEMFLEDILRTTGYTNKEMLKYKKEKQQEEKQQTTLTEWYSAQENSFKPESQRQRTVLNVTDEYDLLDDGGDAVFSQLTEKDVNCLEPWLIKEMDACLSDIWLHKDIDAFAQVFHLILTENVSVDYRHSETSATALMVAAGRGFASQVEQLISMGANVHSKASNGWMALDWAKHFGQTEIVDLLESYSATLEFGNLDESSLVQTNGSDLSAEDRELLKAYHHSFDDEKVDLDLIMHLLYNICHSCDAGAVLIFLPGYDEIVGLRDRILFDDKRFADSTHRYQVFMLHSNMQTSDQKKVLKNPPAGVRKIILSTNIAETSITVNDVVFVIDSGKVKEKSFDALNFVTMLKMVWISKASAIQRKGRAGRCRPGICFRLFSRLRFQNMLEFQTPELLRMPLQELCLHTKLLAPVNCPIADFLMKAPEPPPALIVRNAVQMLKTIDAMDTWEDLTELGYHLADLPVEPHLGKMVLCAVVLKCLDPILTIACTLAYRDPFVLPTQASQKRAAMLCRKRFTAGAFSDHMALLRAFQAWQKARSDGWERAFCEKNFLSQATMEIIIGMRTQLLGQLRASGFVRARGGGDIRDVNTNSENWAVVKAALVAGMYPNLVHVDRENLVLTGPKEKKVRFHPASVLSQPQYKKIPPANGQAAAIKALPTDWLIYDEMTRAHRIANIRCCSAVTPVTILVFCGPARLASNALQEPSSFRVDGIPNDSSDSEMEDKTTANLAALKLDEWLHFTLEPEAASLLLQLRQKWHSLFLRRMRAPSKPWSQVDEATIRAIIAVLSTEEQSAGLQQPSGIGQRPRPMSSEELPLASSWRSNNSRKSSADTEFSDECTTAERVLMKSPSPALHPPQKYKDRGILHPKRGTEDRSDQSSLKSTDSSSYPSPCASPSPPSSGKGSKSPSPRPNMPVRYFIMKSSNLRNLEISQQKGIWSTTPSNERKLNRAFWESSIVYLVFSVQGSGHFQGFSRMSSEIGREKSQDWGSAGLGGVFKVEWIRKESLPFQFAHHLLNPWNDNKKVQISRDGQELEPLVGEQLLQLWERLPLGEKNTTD
Experiment: EC50 of free RNA motif oligo competing protein binding to immobilised probe
Recorded metric: EC50 (nM)

[
  {
    "Query sequence": "CUGUCCU",
    "Recorded metric": "EC50",
    "Unit of measure": "nM",
    "Assay result": 2240
  }
]
